Biological target: MDM2 (Homo sapiens)
Assay: MDM2 binding screen: displacement of fluorescent p53 peptide probe FP53 (fluorescence polarization)
Settings: Acid 25; replicate; crude macrocycle reactions
Protocol: We screened Library 2 in 384-microwell plates by dispensing the target protein MDM2 and reporter peptide into the wells containing the macrocycle reactions. The products were screened for displacement of a p53-based fluorescent peptide from human MDM2. […] For each macrocycle, the MDM2 binding was measured once. One fluorescence anisotropy reading was taken with a Tecan Infinite F200 Pro fluorescence plate reader (excitation at 485 nm, emission at 535 nm) at 25 °C. […]
reported.property: fraction fluorescent probe displaced, Replicate

P. O=C1CCSSCCNC(=O)C2(CCN(C(=O)c3ccc(Cl)cc3)CC2)NC(=O)[C@H]2CCCN(C2)C(=O)[C@H](Cc2c[nH]c3ccccc23)N1 [X W B4 D6 Acid 25]
Q. O=C1CCSSCCNC(=O)[C@H](Cc2c[nH]c3ccccc23)NC(=O)[C@H](CNC(=O)c2ccc(Cl)cc2)NC(=O)CCN1 [X B2 D3 W Acid 25]
R. O=C1CCSSCCNC(=O)C2(CCN(C(=O)c3ccc(Cl)cc3)CC2)NC(=O)[C@H](Cc2ccccc2)NC(=O)CCN1 [X B2 F D6 Acid 25]
Sort ascending by fraction fluorescent probe displaced, Replicate. # list labels per requested ordering
R, P, Q
(R: 0.0465, P: 0.12, Q: 0.22)

P. O=C(NC[C@@H]1NC(=O)[C@H]2CCCN(C2)C(=O)CCSSCCNC(=O)[C@H](Cc2ccccc2)NC1=O)c1ccc(Cl)cc1 [X B4 D3 F Acid 25]
Q. O=C1CCSSCCNC(=O)[C@H](CNC(=O)c2ccc(Cl)cc2)NC(=O)c2cccc(c2)CNC(=O)[C@H](Cc2c[nH]c3ccccc23)N1 [X W B5 D3 Acid 25]
Of P and Q , which shows the smaller fraction fluorescent probe displaced, Replicate value? // return label of chosen record
P

----------
Target: MDM2 (Homo sapiens, UniProt Q00987)
Sequence (Q00987 whole entry): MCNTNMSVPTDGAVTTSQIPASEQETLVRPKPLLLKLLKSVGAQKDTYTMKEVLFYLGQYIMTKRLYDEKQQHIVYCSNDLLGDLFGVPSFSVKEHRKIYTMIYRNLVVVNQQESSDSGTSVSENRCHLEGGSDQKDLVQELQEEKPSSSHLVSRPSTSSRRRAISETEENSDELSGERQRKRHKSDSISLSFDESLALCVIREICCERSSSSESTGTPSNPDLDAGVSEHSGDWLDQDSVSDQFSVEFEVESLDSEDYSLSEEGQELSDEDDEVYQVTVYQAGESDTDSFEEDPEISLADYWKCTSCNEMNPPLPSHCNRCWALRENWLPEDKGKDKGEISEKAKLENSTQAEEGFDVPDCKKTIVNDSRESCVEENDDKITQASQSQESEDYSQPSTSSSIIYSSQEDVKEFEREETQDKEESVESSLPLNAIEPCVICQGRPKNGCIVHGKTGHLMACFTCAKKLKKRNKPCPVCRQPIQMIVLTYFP
Assay: MDM2 binding screen: displacement of fluorescent p53 peptide probe FP53 (fluorescence polarization)
Conditions: Acid 91; replicate; crude macrocycle reactions
Numbered stars: 1 amine (or outer) side, 2 acyl side, 3 side chain; on linkers, the order of the positions; unused ones are H or OH. Bridge positions count the residues as written; N and C are the ends. Square brackets hold non-standard residues; d marks the D form. Peptide text beside a SMILES is read from it. * marks the point of attachment. Cysteamide = C(CS[*:3])N[*:1]; X1 = O=C(/C=C/c1ccccc1)*; Api = NC1(C(=O)O)CCNCC1; Dap = NC[C@H](N)C(=O)O; X2 = O=C(C=Cc1ccccc1)*; Mpa = O=C(O)CCS
reported.property: fraction fluorescent probe displaced, Replicate

See these solved cases before continuing.
molecule: O=C1CCNC(=O)[C@H](Cc2c[nH]c3ccccc23)NC(=O)C2(CCN(C(=O)/C=C/c3ccccc3)CC2)NC(=O)CCSSCCN1
target.of.assay: MDM2 (Homo sapiens, UniProt Q00987)
endpoint.result: 0.07
//
molecule: O=C1NC2(CCN(C(=O)/C=C/c3ccccc3)CC2)C(=O)N[C@@H](Cc2c[nH]c3ccccc23)C(=O)NCCSSCCC(=O)N2CCC[C@H]1C2
target.of.assay: MDM2 (Homo sapiens, UniProt Q00987)
endpoint.result: 0.09
//
molecule: O=C1CCSSCCNC(=O)C2CN(C(=O)C=Cc3ccccc3)CCN2C(=O)C2CCCN2C(=O)C(Cc2c[nH]c3ccccc23)N1 (mixture of isomers)
target.of.assay: MDM2 (Homo sapiens, UniProt Q00987)
endpoint.result: 0.07
//
molecule: O=C1NC2(CCN(C(=O)/C=C/c3ccccc3)CC2)C(=O)NCCSSCCC(=O)N2CCC[C@H]2C(=O)N[C@H]1Cc1c[nH]c2ccccc12 [X B1 W D6 Acid 91] ([Mpa]PW[Api](X1)-Cysteamide; disulfide 1-C)
target.of.assay: MDM2 (Homo sapiens, UniProt Q00987)
endpoint.result: 0.07
//
molecule: O=C1NC(Cc2c[nH]c3ccccc23)C(=O)N2CCCC2C(=O)NCCSSCCC(=O)N2CCN(C(=O)C=Cc3ccccc3)CC12 (stereo not shown)
target.of.assay: MDM2 (Homo sapiens, UniProt Q00987)
endpoint.result: -0.00827

P. O=C(C=Cc1ccccc1)NCC1NC(=O)CCSSCCNC(=O)C(Cc2c[nH]c3ccccc23)NC(=O)C2CCCN(C2)C1=O (stereo not shown)
Q. O=C1CCSSCCNC(=O)C(Cc2c[nH]c3ccccc23)NC(=O)C2CN(C(=O)C=Cc3ccccc3)CCN2C(=O)c2cccc(c2)CN1 (stereo not shown)
Of P and Q , which shows the smaller fraction fluorescent probe displaced, Replicate value? // return label of chosen record
Q
(Q: -0.06, P: 0.09)

A. O=C(/C=C/c1ccccc1)N[C@H]1C[C@H]2C(=O)N[C@@H](Cc3c[nH]c4ccccc34)C(=O)NCCC(=O)NCCSSCCC(=O)N2C1
B. O=C1CCSSCCNC(=O)C2CN(C(=O)C=Cc3ccccc3)CCN2C(=O)C(Cc2ccccc2)NC(=O)CCN1 (stereo not shown)
Given the listed records, identify the one among A and B with higher fraction fluorescent probe displaced, Replicate. // return label of chosen record
B
(B: -0.00827, A: -0.0333)

I. O=C1CCSSCCNC(=O)[C@H](Cc2ccccc2)NC(=O)[C@@H]2CCCN2C(=O)C2(CCN(C(=O)/C=C/c3ccccc3)CC2)N1 [X D6 B1 F Acid 91] ([Mpa][Api](X1)PF-Cysteamide; disulfide 1-C)
II. O=C(/C=C/c1ccccc1)NC[C@@H]1NC(=O)[C@H](Cc2c[nH]c3ccccc23)NC(=O)CCSSCCNC(=O)[C@@H]2CCCN2C1=O [X W D3 B1 Acid 91] ([Mpa]W[Dap](X1)P-Cysteamide; disulfide 1-C)
Given the listed records, identify the one among I and II with higher fraction fluorescent probe displaced, Replicate. // return label of chosen record
II
(II: -0.00827, I: -0.11)

1. O=C(/C=C/c1ccccc1)NC[C@@H]1NC(=O)[C@H](Cc2c[nH]c3ccccc23)NC(=O)c2cccc(c2)CNC(=O)CCSSCCNC1=O
2. O=C1CCSSCCNC(=O)C2CCCN2C(=O)C2CN(C(=O)C=Cc3ccccc3)CCN2C(=O)C(Cc2ccccc2)N1 (mixture of isomers)
Of 1 and 2 , which shows the smaller fraction fluorescent probe displaced, Replicate value? // return label of chosen record
2
(2: -0.06, 1: 0.12)

I. O=C(C=Cc1ccccc1)NC1CC2C(=O)NCCSSCCC(=O)NCCC(=O)NC(Cc3ccccc3)C(=O)N2C1 (stereo not shown)
II. O=C(C=Cc1ccccc1)NC1CC2C(=O)NCc3cccc(c3)C(=O)NCCSSCCC(=O)NC(Cc3ccccc3)C(=O)N2C1 (stereo not shown)
Given the listed records, identify the one among I and II with higher fraction fluorescent probe displaced, Replicate. // return label of chosen record
II

a. O=C(/C=C/c1ccccc1)NC[C@@H]1NC(=O)CCSSCCNC(=O)[C@H]2CCCN(C2)C(=O)[C@H](Cc2c[nH]c3ccccc23)NC1=O
b. O=C1CCNC(=O)C2CN(C(=O)C=Cc3ccccc3)CCN2C(=O)CCSSCCNC(=O)C(Cc2c[nH]c3ccccc23)N1 (stereo not shown)
Of a and b , which shows the smaller fraction fluorescent probe displaced, Replicate value? // return label of chosen record
a
(a: 0.04, b: 0.07)

P. O=C1NC(Cc2c[nH]c3ccccc23)C(=O)NCCSSCCC(=O)N2CCN(C(=O)C=Cc3ccccc3)CC2C(=O)N2CCCC1C2 (stereo not shown)
Q. O=C1CCSSCCNC(=O)c2cccc(c2)CNC(=O)C(Cc2ccccc2)NC(=O)C2(CCN(C(=O)C=Cc3ccccc3)CC2)N1 (stereo not shown)
R. O=C1CCSSCCNC(=O)C2CCCN2C(=O)C2(CCN(C(=O)C=Cc3ccccc3)CC2)NC(=O)C(Cc2ccccc2)N1 (stereo not shown) [X F D6 B1 Acid 91] ([Mpa]F[Api](X2)P-Cysteamide; disulfide 1-C; configuration not given here)
Please list these molecules in decreasing order of fraction fluorescent probe displaced, Replicate. # list labels per requested ordering
P, R, Q
(P: 0.07, R: 0.04, Q: -0.00827)

I. O=C(C=Cc1ccccc1)NC1CC2C(=O)NCc3cccc(c3)C(=O)NC(Cc3ccccc3)C(=O)NCCSSCCC(=O)N2C1 (stereo not shown)
II. O=C1CCSSCCNC(=O)C(Cc2ccccc2)NC(=O)C2CN(C(=O)C=Cc3ccccc3)CCN2C(=O)c2cccc(c2)CN1 (mixture of isomers)
Given the listed records, identify the one among I and II with higher fraction fluorescent probe displaced, Replicate. // return label of chosen record
I
(I: 0.07, II: -0.00827)
